- experiment_description: qHTS RealTime-Glo MT Cell Viability Assay in HEK293 cells - 16 hour (AID 1224872); further: nearly all actives have a fitted effect of over 50% in size
- conditions_used: RealTime-Glo luminescence; series mostly up to 76.8 µM
Results filed as inconclusive are left out. The source made the active and inactive calls. The call rests on the fitted dose curve; in most records, active means well fitted cell-killing curve with a large enough effect in the repeat runs; inconclusive means weak or mixed curves, or effect the other way; inactive means flat fitted curve, though single readings scatter.
Tick one outcome: 1 = active, -1 = inactive

Use the examples below as a reference point.
molecule | label
CCCCC/C=C/CC1CC(=O)OC1=O (stereo not drawn) | -1
CC(=O)C1=C(C)[C@@H]2C[C@@]3(C1)[C@H](C)CC[C@H]3C2(C)C | -1
COC(=O)c1cccc(C(=O)OC)c1 | -1
NCCCCCC(=O)O | -1
O=C1Nc2ccccc2C1(c1ccc(O)cc1)c1ccc(O)cc1 | -1
CO[Si](OC)(OC)c1ccccc1 | -1
CC(=O)O[C@]1(C(C)=O)CC[C@H]2[C@@H]3C[C@H](C)C4=CC(=O)CC[C@]4(C)[C@H]3CC[C@@]21C | 1
Cc1cc(C2(c3cc(C)c(O)cc3C)OS(=O)(=O)c3ccccc32)c(C)cc1O | -1
CC(C)(C)NCC(O)c1cc(O)cc(O)c1 (stereo not drawn) | -1
O=C(Oc1ccccc1)c1ccccc1O | -1

Task: # fetch the recorded call for NCCO here
Result: -1

Task: # fetch the recorded call for CC1COC(=O)O1 (stereo not drawn) here
Result: -1

Task: # fetch the recorded call for O=C(O)c1cn(-c2ccc(F)cc2)c2cc(N3CCNCC3)c(F)cc2c1=O here
Result: -1

---

- experiment_description: qHTS assay to identify small molecule antagonists of the estrogen related receptor (ERR) signaling pathway - cell viability counter screen (AID 1224818);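 further: viability measured after 17.5 h of compound exposure; on the % scale 0 is the no-effect control and ±100 the full control effect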
- conditions_used: ERR reporter cell line viability counter screen; series mostly up to 46.1 µM
Inconclusive results are not listed. The source made the active and inactive calls. Calls follow the shape of the dose curve; as a rule, active = well fitted cell-killing curve with a large enough effect in the repeat runs; inconclusive = weak or mixed curves; inactive = flat fitted curve, though single readings scatter.
readout_label: outcome

Some solved entries appear below for comparison.
compound | value
CC1COc2c(N3CCN(C)CC3)c(F)cc3c(=O)c(C(=O)O)cn1c23 (configuration not stated) | inactive
NC(N)=Nc1nc(CSCC/C(N)=N/S(N)(=O)=O)cs1 | inactive
CNCCC(Oc1ccc(C(F)(F)F)cc1)c1ccccc1 (configuration not stated) | inactive
CC(N)=O | inactive
NCCCCCC(=O)O | inactive

Task: Give reported outcome value for C1COC(NC(C2CC2)C2CC2)=N1
Result: inactive

Task: Give reported outcome value for CCN1CCCC1CNC(=O)c1cc(S(=O)(=O)CC)c(N)cc1OC (configuration not stated)
Result: inactive

---

- experimental_target: Nuclear receptor subfamily 1 group I member 2 (Homo sapiens) (UniProt O75469)
- experiment_description: CYP3A4 induction through human pregnane X receptor (PXR) by small molecules, qHTS assay (AID 1346984); further: on the % scale 0 is the no-effect control and ±100 the full control effect; nearly all actives have a fitted effect of over 40% in size
- conditions_used: DPX-2 HepG2 PXR, CYP3A4-luciferin luminescence, 24 h; series mostly up to 46.1 µM
Inconclusive results are not listed. The source made the active and inactive calls. Calls come from the whole dose curve; as a rule, active = well fitted activation curve with a large enough effect in the repeat runs; inconclusive = weak or mixed curves; inactive = no such curve, though single readings can be large or run the other way.
Tick one outcome: active, inactive

molecule | experimental_target | label
Cc1ccnc2c1NC(=O)c1cccnc1N2C1CC1 | Nuclear receptor subfamily 1 group I member 2 (Homo sapiens) (UniProt O75469) | inactive
Nc1nc(=S)c2[nH]cnc2[nH]1 | Nuclear receptor subfamily 1 group I member 2 (Homo sapiens) (UniProt O75469) | inactive
O=S(=O)(O)c1ccc2nc(-c3ccccc3)[nH]c2c1 | Nuclear receptor subfamily 1 group I member 2 (Homo sapiens) (UniProt O75469) | inactive
CC(C)CCOC(=O)c1ccc(N(C)C)cc1 | Nuclear receptor subfamily 1 group I member 2 (Homo sapiens) (UniProt O75469) | inactive
CCN(CC)C(=O)Nc1ccc(OCC(O)CNC(C)(C)C)c(C(C)=O)c1 (stereo unspecified) | Nuclear receptor subfamily 1 group I member 2 (Homo sapiens) (UniProt O75469) | inactive
CCC(C)(Oc1ccc(C2(c3ccc(OC(C)(CC)C(=O)O)cc3)CCCCC2)cc1)C(=O)O (stereo unspecified) | Nuclear receptor subfamily 1 group I member 2 (Homo sapiens) (UniProt O75469) | inactive

Task: # fetch the recorded call for CC(C)(C)NCC(O)c1cc(O)cc(O)c1 (stereo unspecified) here
Result: inactive

Task: # fetch the recorded call for [Cl][In]([Cl])[Cl] here
Result: inactive

Task: # fetch the recorded call for CCCNC(C)C(=O)Nc1ccccc1C (stereo unspecified) here
Result: inactive

---

- experiment_description: qHTS assay for small molecule agonists of the p53 signaling pathway - cell viability (AID 651633); further: nearly all actives have a fitted effect of over 30% in size
- conditions_used: p53RE-bla HCT-116 viability, ATP luminescence, 16 h; series mostly up to 83.3 µM
Results filed as inconclusive are left out. Activity calls are given as the source filed them. Calls come from the whole dose curve. Starred links: 1 amine or outer side, 2 acyl side, 3 side chain; linkers in the order of their positions; H or OH if unused. Positions of bridges follow the written chain, without caps; N, C: chain ends. Non-standard residues stand in square brackets, D forms with d. Residues, ends and D or L forms follow the SMILES beside them. Chains are numbered I, II in the order given. Actinocin(9to1) = Cc1c2oc3c(C)ccc(C(=O)[*:1])c3nc-2c(C(=O)[*:2])c(N)c1=O; NMeV = CN[C@H](C(=O)O)C(C)C; Sar = CNCC(=O)O
Tick one outcome: active, inactive

compound | label
CC(N)=O | inactive
CC[C@@H](N)CO | inactive
O=C(O)c1cn(-c2ccc(F)cc2)c2cc(N3CCNCC3)c(F)cc2c1=O | inactive
O=c1n(CC2CO2)c(=O)n(CC2CO2)c(=O)n1CC1CO1 (stereo not drawn) | inactive

Task: # fetch the recorded call for Cc1c2oc3c(C)ccc(C(=O)N[C@@H]4C(=O)N[C@H](C(C)C)C(=O)N5CCC[C@H]5C(=O)N(C)CC(=O)N(C)[C@@H](C(C)C)C(=O)O[C@@H]4C)c3nc-2c(C(=O)N[C@@H]2C(=O)N[C@H](C(C)C)C(=O)N3CCC[C@H]3C(=O)N(C)CC(=O)N(C)[C@@H](C(C)C)C(=O)O[C@@H]2C)c(N)c1=O (I: T[dV]P[Sar][NMeV] / II: T[dV]P[Sar][NMeV]; ester I:1-I:C, II:1-II:C; linker I:N-II:N via Actinocin(9to1)) here
Result: inactive

Task: # fetch the recorded call for Cc1cc(C(C)(C)C)c(O)c(C(C)(C)C)c1 here
Result: inactive

Task: # fetch the recorded call for CC(C)CCCCCCc1ccc(O)cc1 here
Result: active

Task: # fetch the recorded call for CC(C)(c1ccccc1)c1ccc(Nc2ccc(C(C)(C)c3ccccc3)cc2)cc1 here
Result: inactive

---

- experiment_description: qHTS assay to identify small molecule antagonists of the estrogen related receptor (ERR) signaling pathway from Tox21 library - cell viability counter screen (AID 1224834); further: on the % scale 0 is the no-effect control and ±100 the full control effect; nearly all actives have a fitted effect of over 30% in size
- conditions_used: ERR reporter cells viability, CellTiter-Fluor, 17.5 h; series mostly up to 92.4 µM
- Method: National Center for Advancing Translational Sciences [NCATS] NIH Chemical Genomics Center [NCGC] U.S. Environmental Protection Agency [EPA] National Institutes of Environmental Health Sciences [NIEHS] National Toxicology Program [NTP] […] The ERR cells were dispensed at 2,000 cells/5 ul/well in 1536-well white plates using a Multidrop dispenser. […] After 30-minute incubation at 37 C/5% CO2, the fluorescence intensity in the plates was measured using a ViewLux plate reader.
Results filed as inconclusive are left out. Calls of active or inactive are those of the source. Calls follow the shape of the dose curve; as a rule, active = well fitted cell-killing curve with a large enough effect in the repeat runs; inconclusive = weak or mixed curves; inactive = flat fitted curve, though single readings scatter.
readout_label: Potency

molecule | readout_label | value
Cc1cccc2n[nH]nc12 | Potency | inactive
C1COC(NC(C2CC2)C2CC2)=N1 | Potency | inactive
CCCNC(C)C(=O)Nc1ccccc1C (stereo unspecified) | Potency | inactive
CC(C)(c1ccccc1)c1ccc(Nc2ccc(C(C)(C)c3ccccc3)cc2)cc1 | Potency | inactive

Proceed to the following item.
Task: Give reported Potency value for CCC(C)(Oc1ccc(C2(c3ccc(OC(C)(CC)C(=O)O)cc3)CCCCC2)cc1)C(=O)O (stereo unspecified)
Result: inactive

---

- experiment_description: qHTS assay to identify small molecule antagonists of the farnesoid-X-receptor (FXR) signaling pathway - cell viability counter screen (AID 743221); further: on the % scale 0 is the no-effect control and ±100 the full control effect; nearly all actives have a fitted effect of over 50% in size
- conditions_used: FXR-bla HEK293T viability, CellTiter-Glo luminescence, 16 h; series mostly up to 62.6 µM
Records with an inconclusive call do not appear. Activity calls are given as the source filed them. The call rests on the fitted dose curve; in most records, active means well fitted cell-killing curve with a large enough effect in the repeat runs (not every such curve was filed as active); inconclusive means weak or mixed curves, or effect the other way; inactive means no such curve, though single readings can be large or run the other way.
Tick one outcome: true (1) for active, false (0) for inactive

Use the examples below as a reference point.
molecule | label
CC(C)(C)NC(=O)[C@@H]1CN(Cc2cccnc2)CCN1C[C@@H](O)C[C@@H](Cc1ccccc1)C(=O)N[C@H]1c2ccccc2C[C@H]1O | false (0)
CC(C)(C)c1ccccc1 | false (0)
c1cnc2cc3c(cc2n1)C1CNCC3C1 | false (0)
O=C(Nc1ccccc1SSc1ccccc1NC(=O)c1ccccc1)c1ccccc1 | false (0)

Task: # fetch the recorded call for Nc1ccc(O)cc1 here
Result: false (0)

Task: # fetch the recorded call for Nc1ccc2cc3ccccc3cc2c1 here
Result: false (0)

Task: # fetch the recorded call for Cc1occc(=O)c1OC(=O)C(C)C here
Result: false (0)

Task: # fetch the recorded call for CO[Si](OC)(OC)c1ccccc1 here
Result: false (0)

Task: # fetch the recorded call for C1COC(NC(C2CC2)C2CC2)=N1 here
Result: false (0)
